Let's look at some compounds and their measured IC50.
Measurement target: Recombinant STAT3 protein (STAT3(G127-I722)) (Homo sapiens, UniProt P40763)
Construct: STAT3(G127-I722)
Sequence (P40763 127-722, species assumed): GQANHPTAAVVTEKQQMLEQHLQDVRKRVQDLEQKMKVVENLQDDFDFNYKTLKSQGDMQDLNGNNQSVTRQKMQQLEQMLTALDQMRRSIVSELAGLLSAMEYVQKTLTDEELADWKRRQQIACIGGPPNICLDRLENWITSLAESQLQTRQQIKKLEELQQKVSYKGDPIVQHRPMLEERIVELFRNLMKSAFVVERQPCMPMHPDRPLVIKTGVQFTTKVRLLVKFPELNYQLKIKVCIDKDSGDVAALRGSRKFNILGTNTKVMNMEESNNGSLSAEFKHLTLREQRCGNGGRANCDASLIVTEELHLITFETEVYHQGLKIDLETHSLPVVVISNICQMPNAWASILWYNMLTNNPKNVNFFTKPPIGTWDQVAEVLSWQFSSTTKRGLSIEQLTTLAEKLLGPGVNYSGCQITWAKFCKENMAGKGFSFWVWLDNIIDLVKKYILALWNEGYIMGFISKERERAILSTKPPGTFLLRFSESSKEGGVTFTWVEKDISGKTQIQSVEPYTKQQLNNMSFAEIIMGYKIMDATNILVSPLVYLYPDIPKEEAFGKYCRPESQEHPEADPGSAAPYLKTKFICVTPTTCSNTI
Protocol details: STAT3 Fluorescence Polarization (FP) Assay
Study conditions: STAT3(G127-I722) 25 nM, probe 5-FAM-GpYLPQTV-NH2 2 nM, 45-minute incubation
Quantity kind: IC50

1. O=C(N[C@H]1C[C@@H]2C[C@@H]2C[C@H]2CC[C@@H](C(=O)N3CC(F)(C(=O)N4CCOCC4)C3)N2C1=O)c1cc2cc(C(F)(F)P(=O)(O)O)ccc2s1	0.1 to 1 µM
2. O=C(N[C@H]1C[C@@H]2C[C@@H]2C[C@H]2CC[C@@H](C(=O)N[C@H]3CN(c4ccccn4)C[C@@H]3F)N2C1=O)c1cc2cc(CP(=O)(O)O)ccc2s1	0.1 to 1 µM
3. O=C(N[C@H]1C[C@H]2C[C@H]2C[C@H]2CC[C@@H](C(=O)N3CC(c4nc5ccccc5[nH]4)C3)N2C1=O)c1cc2cc(C(F)(F)P(=O)(O)O)ccc2s1	< 0.1 µM
4. O=C(N[C@H]1C[C@@H]2C[C@@H]2C[C@H]2CC[C@@H](C(=O)N3CC(Cc4ccncc4)C3)N2C1=O)c1cc2cc(CP(=O)(O)O)ccc2s1	0.1 to 1 µM
5. CC(=O)N1CC2(C1)CN(C(=O)[C@@H]1CC[C@@H]3C[C@H]4C[C@H]4C[C@H](NC(=O)c4cc5cc(C(F)(F)P(=O)(O)O)ccc5s4)C(=O)N31)C2	< 0.1 µM

###

Measurement target: Recombinant STAT6 protein (STAT6(W123-T658)) (Homo sapiens)
Construct: STAT6(W123-T658)
Protocol details: STAT6 Fluorescence Polarization (FP) Assay
Study conditions: STAT6(W123-T658) 250 nM, probe 5-FAM-ApYKPFQDLI-NH2 2 nM, 45-minute incubation
pIC50: −log10 of the molar value.
Each entry below lists one item and its recorded pIC50 value.
Quantity kind: pIC50

1. O=C(N[C@H]1C[C@@H]2C[C@@H]2C[C@H]2CC[C@@H](C(=O)N3CC(c4ncco4)C3)N2C1=O)c1cc2cc(C(F)(F)P(=O)(O)O)ccc2s1	5.52 to 6.52
2. O=C(N[C@H]1C[C@@H]2C[C@@H]2C[C@H]2CC[C@@H](C(=O)N[C@@H]3CCN(c4ccccn4)C3)N2C1=O)c1cc2cc(C(F)(F)P(=O)(O)O)ccc2s1	4.52 to 5.52
3. C[C@@H]1CN(C(=O)C2CN(C(=O)[C@@H]3CC[C@@H]4C[C@H]5C[C@H]5C[C@H](NC(=O)c5cc6cc(C(F)(F)P(=O)(O)O)ccc6s5)C(=O)N43)C2)CCO1	4.52 to 5.52

###

Measurement target: Recombinant STAT6 protein (STAT6(W123-T658)) (Homo sapiens, UniProt P42226)
Construct: STAT6(W123-T658)
Sequence (P42226 123-658, species assumed): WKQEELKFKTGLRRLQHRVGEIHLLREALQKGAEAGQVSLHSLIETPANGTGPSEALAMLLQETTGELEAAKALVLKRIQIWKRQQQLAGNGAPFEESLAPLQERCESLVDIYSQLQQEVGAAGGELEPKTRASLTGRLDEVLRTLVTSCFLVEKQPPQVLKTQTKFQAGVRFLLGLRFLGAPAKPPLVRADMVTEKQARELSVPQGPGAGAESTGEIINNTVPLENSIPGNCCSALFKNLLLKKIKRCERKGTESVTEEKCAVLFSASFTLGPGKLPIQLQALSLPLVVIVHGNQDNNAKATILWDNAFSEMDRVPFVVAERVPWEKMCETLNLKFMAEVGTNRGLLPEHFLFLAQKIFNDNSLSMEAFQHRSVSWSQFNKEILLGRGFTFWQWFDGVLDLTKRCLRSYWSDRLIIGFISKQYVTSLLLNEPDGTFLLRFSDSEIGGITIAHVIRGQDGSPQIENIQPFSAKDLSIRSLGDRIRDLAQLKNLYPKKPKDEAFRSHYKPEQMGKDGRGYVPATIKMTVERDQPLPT
Protocol details: STAT6 Fluorescence Polarization (FP) Assay
Study conditions: STAT6(W123-T658) 250 nM, probe 5-FAM-ApYKPFQDLI-NH2 2 nM, 45-minute incubation
Measured IC50 accompanies every entry in the list below.
Quantity kind: IC50

1) O=C(N[C@H]1C[C@@H]2C[C@@H]2C[C@H]2CC[C@@H](C(=O)N3CC(c4cnccc4N4CCOCC4)C3)N2C1=O)c1cc2cc([C@@H](F)P(=O)(O)O)ccc2s1 (single isomer, unassigned)	3 to 30 µM
2) CN(C)c1ccncc1C1CN(C(=O)[C@@H]2CC[C@@H]3C[C@@H]4C[C@@H]4C[C@H](NC(=O)c4cc5cc(CP(=O)(O)O)ccc5s4)C(=O)N32)C1	> 30 µM
3) O=C(N[C@H]1C[C@@H]2C[C@@H]2C[C@H]2CC[C@@H](C(=O)N[C@@H]3CCN(c4ccccc4)C3)N2C1=O)c1cc2cc(C(F)(F)P(=O)(O)O)ccc2s1	0.3 to 3 µM
4) O=C(N[C@H]1C[C@H]2C[C@H]2C[C@H]2CC[C@@H](C(=O)N3CC(c4cnccc4F)C3)N2C1=O)c1cc2cc(C(F)P(=O)(O)O)ccc2s1 (stereo partly drawn)	0.3 to 3 µM
5) O=C(N[C@H]1C[C@@H]2C[C@@H]2C[C@H]2CC[C@@H](C(=O)N3CC(C(=O)N4CCOCC4)C3)N2C1=O)c1cc2cc(C(F)(F)P(=O)(O)O)ccc2s1	3 to 30 µM
6) CC(=O)N1CC2C1CCN2C(=O)[C@@H]1CC[C@@H]2C[C@H]3C[C@H]3C[C@H](NC(=O)c3cc4cc(CP(=O)(O)O)ccc4s3)C(=O)N21 (stereo partly drawn)	> 30 µM
7) O=C(N[C@H]1C[C@@H]2C[C@@H]2C[C@H]2CC[C@@H](C(=O)N3CC(n4ccnc4)C3)N2C1=O)c1ccc2ccc(C(F)(F)P(=O)(O)O)cc2c1	0.3 to 3 µM
8) Cn1cc(CC2CN(C(=O)[C@@H]3CC[C@@H]4C[C@H]5C[C@H]5C[C@H](NC(=O)c5cc6cc(CP(=O)(O)O)ccc6s5)C(=O)N43)C2)cn1	3 to 30 µM
9) CO[C@@H]1CCN(C(=O)C2CN(C(=O)[C@@H]3CC[C@@H]4C[C@H]5C[C@H]5C[C@H](NC(=O)c5cc6cc(C(F)(F)P(=O)(O)O)ccc6s5)C(=O)N43)C2)C1	3 to 30 µM
10) O=C(N[C@H]1C[C@H]2C[C@H]2C[C@H]2CC[C@@H](C(=O)N3CC(c4cnccc4O)C3)N2C1=O)c1cc2cc(C(F)P(=O)(O)O)ccc2s1 (stereo partly drawn)	0.3 to 3 µM
11) O=C(N[C@H]1C[C@H]2C[C@H]2C[C@H]2CC[C@@H](C(=O)N3CC(c4cccnc4)C3)N2C1=O)c1cc2cc(CP(=O)(O)O)ccc2s1	> 30 µM
12) CN(C)c1ccncc1C1CN(C(=O)[C@@H]2CC[C@@H]3C[C@H]4C[C@H]4C[C@H](NC(=O)c4cc5cc([C@H](F)P(=O)(O)O)ccc5s4)C(=O)N32)C1 (single isomer, unassigned)	3 to 30 µM
13) O=C(N[C@H]1C[C@@H]2C[C@@H]2C[C@H]2CC[C@@H](C(=O)N3CCCOc4ccccc43)N2C1=O)c1cc2cc(C(F)P(=O)(O)O)ccc2s1 (stereo partly drawn)	3 to 30 µM
14) O=C(N[C@H]1C[C@@H]2C[C@@H]2C[C@H]2CC[C@@H](C(=O)N3CC(c4ncccn4)C3)N2C1=O)c1cc2cc(C(F)(F)P(=O)(O)O)ccc2s1	3 to 30 µM
15) CC(=O)N1C[C@H](NC(=O)[C@@H]2CC[C@@H]3C[C@H]4C[C@H]4C[C@H](NC(=O)c4cc5cc(C(F)(F)P(=O)(O)O)ccc5s4)C(=O)N32)[C@@H](O)C1	0.3 to 3 µM
16) O=C(N[C@H]1C[C@H]2C[C@H]2C[C@H]2CC[C@@H](C(=O)N[C@H]3CN(c4cccnc4)C[C@@H]3F)N2C1=O)c1cc2cc(CP(=O)(O)O)ccc2s1	3 to 30 µM
17) O=C(N[C@H]1C[C@@H]2C[C@@H]2C[C@H]2CC[C@@H](C(=O)N3CC(Cc4cccc(F)c4)C3)N2C1=O)c1cc2cc(CP(=O)(O)O)ccc2s1	3 to 30 µM
18) O=C(N[C@H]1C[C@@H]2C[C@@H]2C[C@H]2CC[C@@H](C(=O)N3CC[C@H](N4CCOCC4)C3)N2C1=O)c1cc2cc(C(F)(F)P(=O)(O)O)ccc2s1	3 to 30 µM
19) CC1(O)CCN(C2CN(C(=O)[C@@H]3CC[C@@H]4C[C@H]5C[C@H]5C[C@H](NC(=O)c5cc6cc(C(F)(F)P(=O)(O)O)ccc6s5)C(=O)N43)C2)CC1	3 to 30 µM
20) CC(=O)N1C[C@H](NC(=O)[C@@H]2CC[C@@H]3C[C@@H]4C[C@@H]4C[C@H](NC(=O)c4cc5cc(C(F)P(=O)(O)O)ccc5s4)C(=O)N32)[C@@H](F)C1 (stereo partly drawn)	0.3 to 3 µM
21) O=C(N[C@H]1C[C@H]2C[C@H]2C[C@H]2CC[C@@H](C(=O)N3CC(c4ccccc4)C3)N2C1=O)c1cc2cc(C(F)(F)P(=O)(O)O)ccc2s1	0.3 to 3 µM

###

As shown below, each of these compounds has a reported IC50 value.
Measurement target: pSTAT3 (pY705-STAT3) (Homo sapiens, UniProt P40763)
Construct: host or cells: cryopreserved PBMC
Sequence (P40763 whole entry): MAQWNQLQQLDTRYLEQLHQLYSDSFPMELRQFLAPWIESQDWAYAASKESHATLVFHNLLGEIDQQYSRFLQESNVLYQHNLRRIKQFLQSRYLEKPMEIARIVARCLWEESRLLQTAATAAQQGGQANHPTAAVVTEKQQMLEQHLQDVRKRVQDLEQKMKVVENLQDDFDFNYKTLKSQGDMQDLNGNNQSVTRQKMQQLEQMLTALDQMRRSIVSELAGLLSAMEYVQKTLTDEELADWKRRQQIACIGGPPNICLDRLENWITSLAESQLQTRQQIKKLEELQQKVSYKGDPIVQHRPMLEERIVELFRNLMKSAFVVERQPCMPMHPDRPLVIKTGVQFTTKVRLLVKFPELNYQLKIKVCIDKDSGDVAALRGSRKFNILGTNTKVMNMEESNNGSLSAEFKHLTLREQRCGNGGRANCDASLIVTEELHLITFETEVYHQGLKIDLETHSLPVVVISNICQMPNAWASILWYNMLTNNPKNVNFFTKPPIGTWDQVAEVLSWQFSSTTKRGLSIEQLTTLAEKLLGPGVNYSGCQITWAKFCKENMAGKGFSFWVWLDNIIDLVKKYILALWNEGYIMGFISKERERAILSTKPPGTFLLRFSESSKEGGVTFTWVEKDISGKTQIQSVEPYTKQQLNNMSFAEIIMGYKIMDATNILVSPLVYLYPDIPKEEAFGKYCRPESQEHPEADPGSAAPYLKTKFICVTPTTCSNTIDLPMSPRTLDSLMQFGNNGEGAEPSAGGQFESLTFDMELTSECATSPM
Protocol details: MSD-pSTAT-PBMC Assay (pSTAT3, IL-6 stimulated)
Assay type: cell-based
Study conditions: PBMC, compound 3 hrs, then 10 ng/mL IL-6 for 10 min; MSD pY705-STAT3; read-out: pSTAT3
Quantity kind: IC50

1) CC(C)(C)C(=O)SCCOP(=O)(OCCSC(=O)C(C)(C)C)C(F)c1ccc2sc(C(=O)N[C@H]3C[C@@H]4C[C@@H]4C[C@H]4CC[C@@H](C(=O)N5CC(c6cnccc6F)C5)N4C3=O)cc2c1 (stereo partly shown)	< 100 nM
2) CC(C)OC(=O)[C@H](C)N[P@@](=O)(Cc1ccc2sc(C(=O)N[C@H]3C[C@@H]4C[C@@H]4C[C@H]4CC[C@@H](C(=O)N5CC(C(=O)N6CCOCC6)C5)N4C3=O)cc2c1)Oc1ccccc1 (single isomer, unassigned)	1000 to 3000 nM
3) CCCOC(=O)[C@H](C)N[P@@](=O)(Oc1ccccc1)[C@@H](F)c1ccc2sc(C(=O)N[C@H]3C[C@@H]4C[C@@H]4C[C@H]4CC[C@@H](C(=O)N5CC(c6cnccc6N(C)C)C5)N4C3=O)cc2c1	< 100 nM
4) CCCC(=O)SCCOP(=O)(Cc1ccc2sc(C(=O)N[C@H]3C[C@@H]4C[C@@H]4C[C@H]4CC[C@@H](C(=O)N5CC(n6ccnc6)C5)N4C3=O)cc2c1)OCCSC(=O)CCC	100 to 1000 nM
